Conditions: 318.15 K; 101 kPa; Liquid
assayReadout: mass density (kg/m3)

## Input What mass density value was documented for this compound, COCCO ?
## Output 945.8

## Input # lookup: mass density of CC(=O)N(C)C [N,N-dimethylethanamide]
## Output 917.1

## Input What mass density value was documented for this compound, CC(=O)c1ccccc1 ?
## Output 1007.2

## Input Query (compound): CCCCCCCCO ; field requested: mass density
## Output 807.7

* * *

Conditions: 298.15 K; 101 kPa; Liquid
assayReadout: mass density (kg/m3)

## Input Which mass density is reported for this compound? COCCO
## Output 959.5

## Input Look up mass density for this compound: CCCCCCCCO
## Output 821.5

## Input Need mass density of CC(=O)c1ccccc1 , thanks.
## Output 1023.1

## Input Sample CC(=O)N(C)C [N,N-dimethylethanamide] — what was its mass density?
## Output 937.2
